Kindly supply the reported abundance fitness values for the records listed here.
B1: COUP transcription factor 1, residues 83 to 159; numbered along this chain, P10589 (parent)
chain: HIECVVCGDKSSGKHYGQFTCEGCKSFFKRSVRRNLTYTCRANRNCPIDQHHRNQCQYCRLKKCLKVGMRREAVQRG

Variants of: B1
Assay: abundance fitness (aPCA) (normalised: wild type 0, dead -1); higher = more abundant; growth selection in yeast, the domain comes from the species named
Settings: Homo sapiens
Give bare numbers.

{"columns": ["VARIANT DESCRIPTION", "RECORDED NUMBER"],
 "data": [
  ["S26I", -0.611],
  ["R60L", 0.205],
  ["N54P", 0.006]
]}

Can you give me abundance fitness for all of these, one by one?
1. S31R
2. H51L
3. N54G

Output:
1. -0.955
2. 0.059
3. -0.153

Can you give me abundance fitness for all of these, one by one?
1. R30N
2. C64V
3. C40R
4. M69D
5. R53T
6. R53S
7. H52N
8. R33P

Output:
1: -0.028; 2: -0.823; 3: -0.864; 4: -1.06; 5: 0.017; 6: -0.178; 7: -0.1; 8: -0.771

Can you give me abundance fitness for all of these, one by one?
1. T37N
2. Q75H
3. F27A
4. C24S
5. Q50V
6. K29G

Output:
1. 0.081
2. 0.222
3. -0.812
4. -0.901
5. -0.086
6. 0.068

Can you give me abundance fitness for all of these, one by one?
1. D49I
2. V67K
3. G17C
4. C40E
5. N54S
6. C24M
7. N43P

Output:
[-0.199, -0.127, -0.274, -0.683, -0.033, -1.08, -0.256]

Can you give me abundance fitness for all of these, one by one?
1. C46W
2. V74Y
3. F27L
4. G68S

Output:
1: -0.779; 2: -0.353; 3: -0.819; 4: -0.593

Can you give me abundance fitness for all of these, one by one?
1. N54H
2. A42H
3. G23A
4. C59L
5. H52Y
6. K66L
7. K63H
8. Q50W

Output:
[-0.116, -0.068, -0.153, -0.934, -0.225, -0.032, -0.114, -0.06]

Can you give me abundance fitness for all of these, one by one?
1. Y58A
2. V74S
3. T39E
4. R70E
5. Y16R

Output:
0.017
-0.199
0.191
0.135
-0.31

Can you give me abundance fitness for all of these, one by one?
1. K63F
2. L61Y
3. K29R

Output:
[-0.372, -0.152, -0.181]

Where do these numbers come from? They come from the Human Domainome abundance scans (Beltran et al. 2025).
